Listing: IC50 of selected molecules
- System: A549 (lung adenocarcinoma)
- Method Description: Cytotoxic activity assay (MTT)
- Format: cell-based, human
- Test Conditions: Homo sapiens, A549; 48 h exposure, MTT; read-out: Cell lines, IC50 (μM) A549
Hi! Could you send only the number? It should be in µM, unit omitted.

Check out these entries, answers already filled in.
# get_value(readout='IC50', item= C=C1CC[C@H]2C(C)(C)CCC[C@]2(C)[C@H]1CC/C(C)=C/C(=O)N(C)OC )
82.4

# get_value(readout='IC50', item= C=C1CC[C@H]2C(C)(C)CCC[C@]2(C)[C@H]1CC/C(C)=C/C(=O)N1CCCCC1 )
41.7

# get_value(readout='IC50', item= C=C1CCC2C(C)(C)CCCC2(C)C1CCC(C)=CCO (centres unmarked) [Compound 2, anticopalol] )
60.5

# get_value(readout='IC50', item= C=C1CCC2C(C)(C)CCCC2(C)C1CCC(C)=CC(=O)NCC(=O)OCC (centres unmarked) )
67.3

# get_value(readout='IC50', item= C=C1CC[C@H]2C(C)(C)CCC[C@]2(C)[C@H]1CC/C(C)=C/C(=O)NOC1CCCCO1 (some centres unmarked) )
57.7

# get_value(readout='IC50', item= C=C1CC[C@H]2C(C)(C)CCC[C@]2(C)[C@H]1CC/C(C)=C/C(=O)NC )
65.1

# get_value(readout='IC50', item= C=C1CC[C@H]2C(C)(C)CCC[C@]2(C)[C@H]1CC/C(C)=C/C(=O)Nc1ccccc1 )
46.9

# get_value(readout='IC50', item= C=C1CCC2C(C)(C)CCCC2(C)C1CCC(C)=CC(=O)O (centres unmarked) [Compound 1, anticopalic acid] )
159

Others:
# get_value(readout='IC50', item= C=C1CC[C@H]2C(C)(C)CCC[C@]2(C)[C@H]1CC/C(C)=C/C(=O)N(C)O )
61.4

# get_value(readout='IC50', item= C=C1CC[C@H]2C(C)(C)CCC[C@]2(C)[C@H]1CC/C(C)=C/C(=O)NCC(=O)OC )
43.8

# get_value(readout='IC50', item= C#CCNC(=O)/C=C(\C)CC[C@H]1C(=C)CC[C@H]2C(C)(C)CCC[C@]12C )
54.1

# get_value(readout='IC50', item= C=C1CC[C@H]2C(C)(C)CCC[C@]2(C)[C@H]1CC/C(C)=C/C(=O)NCCc1c[nH]c2ccccc12 )
41.4

# get_value(readout='IC50', item= C=C1CC[C@H]2C(C)(C)CCC[C@]2(C)[C@H]1CC/C(C)=C/C(=O)N(C)C )
51.8

###

- Tested on: MOLT-3 (T cell acute lymphoblastic leukemia)
- Method Description: Cytotoxic activity assay (XTT)
- Format: cell-based, human
- Test Conditions: SI = IC50 normal cell (MRC-5)/ IC50 cancer cell
Response field label: string, one of true (Selectivity Index (SI) values MOLT-3 strictly below 2) or false.

Below, 5 molecules whose answers are already recorded.
Just wondering, is Selectivity Index (SI) values MOLT-3 of C=C1CC[C@H]2C(C)(C)CCC[C@]2(C)[C@H]1CC/C(C)=C/C(=O)NC below 2?
false

Just wondering, is Selectivity Index (SI) values MOLT-3 of C=C1CC[C@H]2C(C)(C)CCC[C@]2(C)[C@H]1CC/C(C)=C/C(=O)NCCCCCCCC below 2?
true

Just wondering, is Selectivity Index (SI) values MOLT-3 of C=C1CC[C@H]2C(C)(C)CCC[C@]2(C)[C@H]1CC/C(C)=C/C(=O)N(C)OC below 2?
true

Just wondering, is Selectivity Index (SI) values MOLT-3 of C=C1CC[C@H]2C(C)(C)CCC[C@]2(C)[C@H]1CC/C(C)=C/C(=O)NCC(=O)OC below 2?
false

Just wondering, is Selectivity Index (SI) values MOLT-3 of C=CCNC(=O)/C=C(\C)CC[C@H]1C(=C)CC[C@H]2C(C)(C)CCC[C@]12C below 2?
false

Others:
Just wondering, is Selectivity Index (SI) values MOLT-3 of C=C1CC[C@H]2C(C)(C)CCC[C@]2(C)[C@H]1CC/C(C)=C/C(=O)NCCc1c[nH]c2ccccc12 below 2?
false

Just wondering, is Selectivity Index (SI) values MOLT-3 of C#CCNC(=O)/C=C(\C)CC[C@H]1C(=C)CC[C@H]2C(C)(C)CCC[C@]12C below 2?
false

Just wondering, is Selectivity Index (SI) values MOLT-3 of C=C1CCC2C(C)(C)CCCC2(C)C1CCC(C)=CC(=O)O (centres unmarked) [Compound 1, anticopalic acid] below 2?
false
